- Assayed system: CDK7/CycH/MNAT1 (Homo sapiens (Human), UniProt P50613)
- Sequence (P50613 whole entry): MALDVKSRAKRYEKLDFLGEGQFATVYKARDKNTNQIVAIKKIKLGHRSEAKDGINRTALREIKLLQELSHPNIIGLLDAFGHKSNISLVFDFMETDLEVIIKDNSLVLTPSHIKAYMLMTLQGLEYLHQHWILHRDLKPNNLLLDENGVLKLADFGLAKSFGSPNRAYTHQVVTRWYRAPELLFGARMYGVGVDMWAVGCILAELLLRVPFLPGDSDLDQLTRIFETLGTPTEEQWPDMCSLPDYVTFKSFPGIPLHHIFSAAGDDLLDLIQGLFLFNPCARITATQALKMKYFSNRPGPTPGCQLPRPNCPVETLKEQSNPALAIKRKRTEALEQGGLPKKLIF
- Sequence (P51946 whole entry partner): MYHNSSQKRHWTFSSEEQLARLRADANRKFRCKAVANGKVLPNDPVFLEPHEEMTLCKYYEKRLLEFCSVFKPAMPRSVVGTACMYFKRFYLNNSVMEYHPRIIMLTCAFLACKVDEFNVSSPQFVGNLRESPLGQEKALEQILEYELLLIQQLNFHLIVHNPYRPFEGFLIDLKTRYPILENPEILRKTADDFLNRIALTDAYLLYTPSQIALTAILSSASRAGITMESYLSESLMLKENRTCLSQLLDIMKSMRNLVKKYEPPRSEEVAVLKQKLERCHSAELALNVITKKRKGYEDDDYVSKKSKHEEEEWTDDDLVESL
- Sequence (P51948 whole entry partner): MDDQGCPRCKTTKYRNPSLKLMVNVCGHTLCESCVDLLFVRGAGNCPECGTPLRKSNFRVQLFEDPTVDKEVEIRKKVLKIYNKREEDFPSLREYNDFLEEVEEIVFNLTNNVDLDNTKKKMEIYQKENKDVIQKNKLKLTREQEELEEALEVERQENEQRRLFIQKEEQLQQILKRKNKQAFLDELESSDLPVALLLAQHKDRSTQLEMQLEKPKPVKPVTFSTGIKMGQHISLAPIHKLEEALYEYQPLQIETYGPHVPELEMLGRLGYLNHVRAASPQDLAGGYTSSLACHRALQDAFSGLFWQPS
- Experiment: Biochemical Assay for CDK7 (TR-FRET kinase assay)
- Recorded conditions: 10 μM compound; 60 min pre-incubation with kinase; 1 mM ATP
Property name: inhibition at 10 µM (%)

CCC(C(=O)Nc1cc(C2CC2)[nH]n1)c1cccc(-c2ccc(NC(=O)/C=C/CN(C)C)cc2)c1 (stereo not shown) [Compound 13]
97
CC(C(=O)Nc1cc(C2CC2)[nH]n1)c1cccc(-c2ccc(NC(=O)/C=C/CN3CCOCC3)nc2F)c1 (stereo not shown) [Compound 59]
99
CCN(CC)C/C=C/C(=O)Nc1ccc(-c2cccc(C(C)C(=O)Nc3cc(C4CC4)[nH]n3)c2)cc1F (stereo not shown) [Compound 32]
100
C=CC(=O)Nc1ccc(-c2cccc(C(C)C(=O)Nc3cc(C4CC4)[nH]n3)c2)cn1 (stereo not shown) [Compound 20]
100
CON(C)C/C=C/C(=O)Nc1ccc(-c2cccc(C(C)C(=O)Nc3cc(C4CC4)[nH]n3)c2)cn1 (stereo not shown) [Compound 62]
81
CC(C(=O)Nc1n[nH]c2ccccc12)c1cccc(-c2ccc(NC(=O)/C=C/CN(C)C)cc2)c1 (stereo not shown) [Compound 91]
84
C=CC(=O)Nc1ccc(-c2cccc(C(C)C(=O)Nc3cc(C4CC4)[nH]n3)c2)cc1OC (stereo not shown) [Compound 65]
94
